- tested.system: full-length human Notch3 expressed on the cell surface (human, UniProt Q9UM47 40-2321)
- Sequence (Q9UM47 40-2321): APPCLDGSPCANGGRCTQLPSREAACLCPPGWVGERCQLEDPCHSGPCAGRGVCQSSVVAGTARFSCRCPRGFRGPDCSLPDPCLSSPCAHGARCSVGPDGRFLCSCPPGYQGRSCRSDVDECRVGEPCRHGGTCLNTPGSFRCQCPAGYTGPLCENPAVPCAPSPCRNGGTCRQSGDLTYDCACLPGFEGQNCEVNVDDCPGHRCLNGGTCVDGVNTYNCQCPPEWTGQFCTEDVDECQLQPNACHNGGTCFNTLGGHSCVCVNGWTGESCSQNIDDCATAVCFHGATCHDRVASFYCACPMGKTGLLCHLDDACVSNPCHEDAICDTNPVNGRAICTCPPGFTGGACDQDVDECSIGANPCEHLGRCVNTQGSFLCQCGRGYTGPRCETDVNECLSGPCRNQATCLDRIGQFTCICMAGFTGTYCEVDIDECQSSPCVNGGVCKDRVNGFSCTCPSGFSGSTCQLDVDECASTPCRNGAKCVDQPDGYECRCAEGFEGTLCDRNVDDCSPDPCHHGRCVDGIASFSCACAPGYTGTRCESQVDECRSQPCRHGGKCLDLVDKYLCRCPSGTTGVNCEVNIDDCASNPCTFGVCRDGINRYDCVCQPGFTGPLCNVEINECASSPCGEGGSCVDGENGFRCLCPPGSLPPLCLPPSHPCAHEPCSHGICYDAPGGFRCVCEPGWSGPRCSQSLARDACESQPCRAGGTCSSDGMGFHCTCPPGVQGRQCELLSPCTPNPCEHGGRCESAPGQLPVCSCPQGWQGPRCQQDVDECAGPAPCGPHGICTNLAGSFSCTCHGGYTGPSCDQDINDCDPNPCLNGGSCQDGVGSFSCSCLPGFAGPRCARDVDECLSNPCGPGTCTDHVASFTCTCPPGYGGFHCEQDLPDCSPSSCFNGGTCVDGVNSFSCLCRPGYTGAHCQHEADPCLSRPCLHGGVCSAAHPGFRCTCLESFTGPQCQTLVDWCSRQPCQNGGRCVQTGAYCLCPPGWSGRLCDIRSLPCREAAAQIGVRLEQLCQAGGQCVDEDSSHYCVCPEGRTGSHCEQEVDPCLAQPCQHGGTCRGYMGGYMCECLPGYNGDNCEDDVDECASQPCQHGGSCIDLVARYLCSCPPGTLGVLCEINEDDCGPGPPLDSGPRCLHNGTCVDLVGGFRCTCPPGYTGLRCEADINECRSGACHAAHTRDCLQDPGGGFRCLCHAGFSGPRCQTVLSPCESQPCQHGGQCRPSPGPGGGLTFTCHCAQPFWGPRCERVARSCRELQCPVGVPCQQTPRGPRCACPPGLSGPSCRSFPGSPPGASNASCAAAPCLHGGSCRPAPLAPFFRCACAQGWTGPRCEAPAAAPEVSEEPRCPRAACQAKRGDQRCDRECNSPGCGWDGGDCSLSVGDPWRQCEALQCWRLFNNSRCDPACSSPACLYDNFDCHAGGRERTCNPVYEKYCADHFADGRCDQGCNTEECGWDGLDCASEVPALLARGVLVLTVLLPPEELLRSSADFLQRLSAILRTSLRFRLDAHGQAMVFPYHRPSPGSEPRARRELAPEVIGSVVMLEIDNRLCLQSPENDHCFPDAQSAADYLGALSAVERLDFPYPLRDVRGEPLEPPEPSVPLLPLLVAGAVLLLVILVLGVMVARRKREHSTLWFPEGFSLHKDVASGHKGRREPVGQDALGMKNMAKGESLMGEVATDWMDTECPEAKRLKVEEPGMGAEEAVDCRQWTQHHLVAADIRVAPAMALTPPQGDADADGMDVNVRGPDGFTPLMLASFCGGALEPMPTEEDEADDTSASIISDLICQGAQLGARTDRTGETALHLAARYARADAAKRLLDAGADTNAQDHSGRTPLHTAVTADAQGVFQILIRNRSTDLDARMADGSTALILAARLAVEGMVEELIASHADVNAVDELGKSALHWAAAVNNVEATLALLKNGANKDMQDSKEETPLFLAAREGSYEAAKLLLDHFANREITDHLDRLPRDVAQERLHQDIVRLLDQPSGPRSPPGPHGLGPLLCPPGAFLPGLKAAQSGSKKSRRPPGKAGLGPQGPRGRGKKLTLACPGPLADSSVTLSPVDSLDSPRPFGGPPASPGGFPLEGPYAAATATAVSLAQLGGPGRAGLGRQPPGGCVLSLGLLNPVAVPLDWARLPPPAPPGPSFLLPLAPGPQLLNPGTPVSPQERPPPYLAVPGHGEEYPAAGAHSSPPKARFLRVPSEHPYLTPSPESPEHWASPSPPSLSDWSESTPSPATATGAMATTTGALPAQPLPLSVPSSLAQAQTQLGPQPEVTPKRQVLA
- assay.procedure: cell-based or functional assay
Record form. Attribute: IC50 of cytotoxicity (MTS viability), HCC2429 cells, repeat 1. Fill in for each entry.
Numbers only, in ng Ab/mL.

Here is how some binders turned out for IC50 of cytotoxicity (MTS viability), HCC2429 cells, repeat 1.
// recorded IC50 of cytotoxicity (MTS viability), HCC2429 cells, repeat 1 for hu28-vc0101 (Notch3-28-v1010-hG1-(C)_mcValCitPABC-#54) (antibody, human IgG1, kappa, V domains shown, vc0101 linker-payload on cysteine residues after partial reduction; sites not specified, Antibody-drug conjugate of hu28) VH: EVQLVESGGGLVQPGGSLRLSCAASGFTFRDYGMTWVRQAPGKGLEWVAYISSGSNYIYYAEAVKGRFTISRDNAKNSLYLQMNSLRAEDTAVYYCARRGPFVLDAWGQGTLVTVSS VL: DIQMTQSPSSLSASVGDRVTITCKASQSINRYLHWYQQKPGKAPKLLIYNANGLQTGVPSRFSGSGSGTDFTLTISSLQPEDFATYYCLQHNTWPDTFGGGTKVEIKR : 473

// recorded IC50 of cytotoxicity (MTS viability), HCC2429 cells, repeat 1 for hu28-vc6780 (Notch3-28-v1010-hG1-(C)_mcValCitPABC-#112) (antibody, human IgG1, kappa, V domains shown, vc6780 linker-payload on cysteine residues after partial reduction; sites not specified, Antibody-drug conjugate of hu28) VH: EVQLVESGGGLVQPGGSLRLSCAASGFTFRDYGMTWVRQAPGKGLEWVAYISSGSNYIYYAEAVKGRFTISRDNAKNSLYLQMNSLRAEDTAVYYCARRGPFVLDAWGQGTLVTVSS VL: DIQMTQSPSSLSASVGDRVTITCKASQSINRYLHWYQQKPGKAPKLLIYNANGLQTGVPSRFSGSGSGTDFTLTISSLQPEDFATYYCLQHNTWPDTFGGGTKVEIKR : 148

// recorded IC50 of cytotoxicity (MTS viability), HCC2429 cells, repeat 1 for hu75-vc6780 (Notch3-75-v1913-hG1-(C)_mcValCitPABC-#112) (antibody, human IgG1, kappa, V domains shown, vc6780 linker-payload on cysteine residues after partial reduction; sites not specified, Antibody-drug conjugate of hu75) VH: EVQLVESGGGLVQPGGSLRLSCAASGYAFTDYWMTWVRQAPGKGLEWVAEISPNSGGTNFNEKFKGRFTISVDNAKNSLYLQMNSLRAEDTAVYYCARGEIRYNWFAYWGQGTLVTVSS VL: DIQMTQSPSSLSASVGDRVTITCKASQNVGNNIAWYQQKPGKAPKLLIYYASNRYTGVPSRFSGSGYGTDFTLTISSLQPEDFATYYCQRLYNSPFTFGGGTKVEIKR : 214

Others:
// recorded IC50 of cytotoxicity (MTS viability), HCC2429 cells, repeat 1 for hu75-vc0101 (Notch3-75-v1913-hG1-(C)_mcValCitPABC-#54) (antibody, human IgG1, kappa, V domains shown, vc0101 linker-payload on cysteine residues after partial reduction; sites not specified, Antibody-drug conjugate of hu75) VH: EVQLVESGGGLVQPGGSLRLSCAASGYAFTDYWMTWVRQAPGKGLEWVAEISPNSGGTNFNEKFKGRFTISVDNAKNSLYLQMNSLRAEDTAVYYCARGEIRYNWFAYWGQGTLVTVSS VL: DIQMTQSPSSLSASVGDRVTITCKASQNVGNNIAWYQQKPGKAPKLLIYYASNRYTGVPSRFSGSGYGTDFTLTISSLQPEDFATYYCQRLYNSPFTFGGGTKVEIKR : 611
